Data origin, for the record: a melting point compilation (Tetko et al.; mined from patent text by program, amines drawn as free bases though some values may be those of a salt)

The following compounds are shown together with reported melting point values.
Property measured: melting point

COc1cc(C)c(C(=O)c2ccc(OCc3nc(-c4ccccc4)oc3C)cc2)c(O[C@H](C)C(=O)O)c1 ... 122 to 123 °C
CCOCC1OC(n2cnc3c(NC4CCCC4)ncnc32)C(O)C1O (stereo not given) ... 134 to 136 °C
CCCOc1ccc2c(c1)C(OS(=O)(=O)F)=C(C(=O)OC)[C@H]2c1ccc2c(c1)OCO2 ... 160 to 161 °C
C[C@H](Nc1nc(Nc2cccc(NS(C)(=O)=O)c2)nc2[nH]cnc12)C(C)(C)C ... 150 to 153 °C
CCOC(=O)Nc1ccc2c(c1)c1c(n2Cc2cccc(F)c2)CC[C@@H](NC(=O)C(C)C)C1 ... 169 to 171 °C
CC(C)C[C@H](NC(=O)OCC1CCCCCC1)C(=O)N[C@@H](Cc1ccccc1)C(=O)CSCc1ccco1 ... 77 to 79 °C
COc1cc(Nc2ncnc3cc(OCCCc4ccncc4)c(OC)cc23)c(OC)cc1Cl ... 205 to 208 °C
CC(C(=O)O)c1ccc2c(c1)CCc1ccccc1S2 (stereo not given) ... 103 to 104 °C
O=C(Nc1nccs1)c1c(CO)nc2c(C(F)(F)F)cccc2c1O ... 280 °C
CCCc1c2c(cc3c(=O)cc(C(=O)OCC)oc13)CCCC2 ... 98 to 99.5 °C
CCOC(=O)CCC(=O)OCC(F)(F)Cn1nc(C)c(-c2ccc3c(c2)NC(=O)CO3)c1-c1ccc(F)cc1 ... 100 °C
Cc1ccc(S(=O)(=O)NC(=S)Nc2cnccc2N)cc1 ... 185 to 187 °C
CCCCCCOc1nc(-c2ccccc2)sc1-c1ccccc1 ... 70 to 72 °C
COc1cc2c(cc1C(F)(F)F)N(C(=O)Nc1cccc(S(=O)(=O)Nc3cccnc3)c1)CC2 ... > 215 °C
CC1CCc2c(N3CCCCC3)c(F)cc3c(=O)c(C(=O)O)cn1c23 (stereo not given) ... 258 to 261 °C
CCCCCCCCCCc1cc(C=O)on1 ... 46 to 48 °C
Cn1nc(Cc2ccc(O)c(Cl)c2Cl)c(Cl)c1OC(F)F ... 127 to 128 °C
Nc1cccc(C=C2NC(=O)NC2=O)c1 ... 280 to 284 °C
CON1C(=O)CC2(CCN(C(=O)C3=CN(Cc4ccccc4)C=CC3)CC2)C1=O ... 57 to 73 °C
O=C1C=CC(OC2CCCC2)N1S(=O)(=O)c1ccccc1 (stereo not given) ... 123 to 124 °C

====

Property measured: melting point

CCOC(=O)C(C)(Cc1cccc(OCCN2CCCCC2)c1)S(=O)(=O)c1ccc(OC)cc1 (stereo not given) ... 112 °C
OC(CCl)(Cc1c(Cl)cccc1Cl)c1ccc(Cl)cc1Cl (stereo not given) ... 117 °C
NS(=O)(=O)c1ncccc1S ... 102 to 104 °C
CC(C)(C)OC(=O)Cc1ccc(CNC(=O)C2Cc3ccccc3N2S(=O)(=O)c2ccc(-c3cccc(C(F)(F)F)c3)cc2)cn1 (stereo not given) ... 70 °C
CCn1cc(C(=O)O)c(=O)c2cc(F)c(N3CCC(CNC(C)C)C3)nc21 (stereo not given) ... 302 to 304 °C
COC(=O)c1cnc(Cl)c(Br)c1 ... 78 to 79 °C
CC(C)(Cl)CC(=O)c1cc(C(C)(C)C)c(O)c(C(C)(C)C)c1 ... 101 to 102 °C
CC1CCc2ncc(C(N)=O)c(=O)n21 (stereo not given) ... 191 °C
O=C(O)c1ccc(Cn2cc(C3c4ccc(C(F)(F)F)cc4C=Cc4cc(C(F)(F)F)ccc43)c(=S)[nH]c2=O)o1 ... 159 to 162 °C
CCN(CC)C(=S)NC1CC2c3cccc4[nH]c(I)c(c34)CC2N(C)C1 (stereo not given) ... 198 °C
C[C@]1(CN2CCC(OCc3ccc(Cl)c(Cl)c3)CC2)Cn2cc([N+](=O)[O-])nc2O1 ... 132 to 136 °C
CC(=O)Nc1cccc2c1Oc1ccccc1C21CCN(C)CC1 ... 176 to 178 °C
CCCN(C(N)=S)c1cccc2ccccc12 ... 170 to 171 °C
CC(C(=O)O)c1ccc(-n2cc(Cl)cn2)c(Cl)c1 (stereo not given) ... 102 to 103 °C
CCCCc1c(C(=O)OCC)[nH]c2cccc(SC)c2c1=O ... 80 °C
O=C(C(Cl)Cl)N1CCCCCC1 ... 56 °C
CN(C)CCCn1c(-c2ccc(Br)cc2)csc1=Nc1ccccc1 ... 110 to 111 °C
Cn1c(C(F)(F)F)cc(=O)n(-c2ccc(Cl)c(C(=O)O)c2)c1=O ... 235 to 236 °C
COc1cc(C2=CCCCC2)c(Cl)cc1C(=O)N1Cc2ccc(C(=O)N(C)CCCN(C)C)n2Cc2ccccc21 ... 116 to 119 °C
COc1cc2c(cc1O)CCN(Cc1cccc(C#N)c1)C2 ... 113 to 155 °C
CN(C)CCCNC(=O)c1ccc(-c2nnc(CSCCCOc3ccccc3)o2)cc1 ... 77 to 80 °C
CC1(C)COC(CCCc2ccc(NC=NO)cc2)OC1 ... 138 to 140 °C
O=C(Nc1ccc(-c2ccccc2)cc1)c1ccc2n1Cc1ccccc1N(C(=O)COc1ccc(Cl)cc1)C2 ... 201 to 202 °C
COc1cc(C)c(NS(C)(=O)=O)cc1C(=O)NCC(Cl)CCCCl (stereo not given) ... 132 °C
Cc1cc2cc(CN3CCCCCC3)cnc2cc1NC(=O)c1ccc(-c2cc3ccccc3o2)cc1 ... 207 °C
COCCN1c2ccc([N+](=O)[O-])cc2CS1(=O)=O ... 130 to 132 °C
Cc1nn2c(C(F)(F)F)cc(-c3ccc(Cl)cc3)nc2c1C#N ... 238 °C
O=C(CCl)Nc1sccc1C(O)c1ccccc1Cl (stereo not given) ... 118 to 120 °C
CC=CCn1c(C)c(C)c2cnnc(OCc3ccc(Cl)cc3Cl)c21 ... 133 to 134 °C
FC(F)(F)c1ccc2nc(N3CCN(c4ncccc4C(F)(F)F)CC3)n(Cc3ccccc3)c2c1 ... 154 to 157 °C
O=C(O)COc1cc(Cl)ccc1C(=O)NCc1cc(F)cc(C(F)(F)F)c1 ... 160 to 162 °C
c1csc(-c2n[nH]c3c2Cc2cc(CN4CCOCC4)ccc2-3)c1 ... 178 to 179 °C
O=Cc1ccc(OC2CCCC2)c2oc3ccc([N+](=O)[O-])cc3c12 ... 230 to 240 °C
CCCc1c(OCCc2ccc3cc(O)c(O)cc3c2)ccc(C(=O)O)c1O ... 216 to 218 °C
O=Cc1cc(O)ccc1-c1cccnc1 ... 182 to 184 °C
CC(C)(C)C(=O)c1ccc(C(Br)Br)cc1 ... 65 to 68 °C
O=C(c1ccccc1Cl)c1ccccc1Nc1ncccc1[N+](=O)[O-] ... 119 °C
CC(C)OC(=O)C(C)Oc1ncn(-c2cccc(C(F)(F)F)c2)n1 (stereo not given) ... 97 to 99 °C
O=C(O)Cn1c(=O)c(=O)[nH]c2cc([N+](=O)[O-])c(-n3ccc(CN4CCN(C(c5ccccc5)c5ccccc5)CC4)c3)cc21 ... > 245 °C
CC(Oc1ccccc1)C(=O)NCCO[N+](=O)[O-] (stereo not given) ... 74 to 75 °C

====

The following molecules are shown together with reported melting point values.
Property measured: melting point

Cc1ccc(S(=O)(=O)OC[C@@H](O)CCc2ccccc2)cc1 ... 68 to 69 °C
O=c1c2c(CCc3ccccc3[N+](=O)[O-])n[nH]c2c2cccnc2n1-c1ccccc1 ... 333 to 335 °C
COc1ccc2c(c1)Cc1c([nH]cnc1=O)N2 ... > 300 °C
O=C(O)c1ccc(CCOc2c(F)ccc3nc(C(=O)NCc4cccc(OCCOc5nc[nH]n5)c4)[nH]c(=O)c23)cc1 ... 122 to 124 °C
COc1ccccc1CSc1nc2cnccc2[nH]1 ... 193 to 195 °C
COc1ccc(C2CCCCC2=O)cc1 (stereo not given) ... 90 °C
CC1(C)c2cc(OS(C)(=O)=O)ccc2OC1Cl (stereo not given) ... 59 to 61 °C
Nc1ccc(S(=O)(=O)c2cc(N)nc(Br)c2)cc1 ... 204 to 205 °C
O=C(OCc1ccccc1)c1cc2cc(Br)ccc2nn1 ... 171 °C
Cc1ccc(C(=O)O)c(-c2ccc(Cl)c(C(=O)NCC34CC5CC(CC(C5)C3)C4)c2)n1 ... 209 to 211 °C

====

Property measured: melting point

CON=C(C(C)=C(ON)c1ccccc1C(=NOC)C(=O)OC)c1ccc(Cl)cc1 ... 115 to 117 °C
CCOC(=O)CON(C)C(=S)Nc1ccc2c(c1)CCC2 ... 69 to 71 °C
CC(=O)OCc1cccc([N+](=O)[O-])c1Br ... 60 to 63 °C
CNC(=O)C1OC1C(=O)c1ccc(Cl)cc1 (stereo unspecified) ... 160 to 161 °C
CCCC1(O)CCC2C3CCC4=CC(=O)CCC4C3CCC21CC (stereo unspecified) ... 132 to 134 °C
CCCCN1CCN(CCNC(=O)c2nn(C(C)C)c3ccccc23)CC1 ... 82 to 84 °C
COc1ccc(-c2nc3ccc(C(C)(C)CNS(C)(=O)=O)cc3[nH]2)cc1 ... 146 to 148 °C
CCCCCNC(=O)Nc1ccccc1C(=O)NCCC1CCN(C(c2ccccc2)c2ccccc2)CC1 ... 124 to 127 °C
O=C1Cc2c(cccc2OCCNCc2ccccc2)N1 ... 145 to 146 °C
Clc1ccc(-c2cn([C@H]3CN4CCC3CC4)nn2)cc1 ... 144 °C
O=[N+]([O-])c1ccc2nc(Cl)c(Cc3ccccc3)cc2c1 ... 159 to 161 °C
CN(C)Cc1ccc(CSCCNC(=NC(=O)CNN2C(=O)c3ccccc3C2=O)N(C)N=Cc2ccccc2)o1 ... 115 °C
Nc1nc2ccc(Oc3ccc4c(c3)OCO4)cc2s1 ... 154 to 157 °C
CC(C)(C)OC(=O)NCCCCC1C(=O)OC(C)(C)OC1=O ... 112 to 113 °C
CC1(C)CC(=O)C2C3CCCCC3C2(C)C1 (stereo unspecified) ... 76.6 to 77.4 °C
O=C(O)c1cn(C2CC2)c2c(F)c(N3CC(N4CCCC4)C3)c(F)cc2c1=O ... 224 to 227 °C
O=C(O)COc1ccc(-c2ccccc2OC2OC(CO)C(O)C(O)C2O)cc1 (stereo unspecified) ... 145 to 146 °C
CC(C)(C)c1cc(OCC(=O)NN)cc(C(C)(C)C)c1O ... 141 to 142 °C
COc1ccc(CCN2CCC(n3ccc4ccc(CNC(C)=O)cc43)CC2)cc1 ... 101 to 102 °C
COc1ccc(C(O)(c2ccc(OC)cc2)C2CCNCC2)cc1 ... 153 to 155 °C
CCC(C)OC(=O)C(C(=O)O)=C1SCS1 (stereo unspecified) ... 80 to 82 °C
